Target or system Somatostatin receptor type 4 (Mus musculus, UniProt P49660); recorded quantity pKi.
pKi: −log10 of the molar value. Where a SMILES comes first, the peptide text is derived from it. Bridges are numbered along the chain shown (N, C = ends). [ ]: non-standard residue; d: D form.
MEASURED QUANTITY: pKi

COMPOUND	MEASURED QUANTITY	MEASUREMENT
CC(C)[C@H](NC(=O)[C@H](CCCCN)NC(=O)[C@@H](Cc1c[nH]c2ccccc12)NC(=O)[C@H](Cc1ccc(O)cc1)NC(=O)[C@H](Cc1ccccc1)NC(=O)[C@H](N)Cc1ccccc1)C(=O)N[C@@H](Cc1ccccc1)C(=O)N[C@H](Cc1ccccc1)C(N)=O (H-[dF]FY[dW]KVF[dF]-NH2)	pKi	6.60
C[C@@H](O)[C@@H]1NC(=O)[C@H](Cc2ccc(O)cc2)NC(=O)[C@H]([C@@H](C)O)NC(=O)[C@H](CCCCN)NC(=O)[C@H](Cc2c[nH]c3ccccc23)NC(=O)[C@H](Cc2ccccc2)NC(=O)[C@H](Cc2ccccc2)NC(=O)[C@H](CC(N)=O)NC(=O)[C@H](CCCCN)NC(=O)CCCCC[C@@H](C(=O)O)NC(=O)[C@H](CO)NC1=O	pKi	8.85
CC(C)[C@@H]1NC(=O)[C@H](CCCCN)NC(=O)[C@@H](Cc2c[nH]c3ccccc23)NC(=O)[C@H](Cc2ccc(O)cc2)NC(=O)[C@@H](NC(=O)[C@H](N)Cc2ccccc2)CSSC[C@@H](C(=O)N[C@@H](Cc2c[nH]c3ccccc23)C(N)=O)NC1=O [CAS_71306] (H-[dF]CY[dW]KVCW-NH2; disulfide 2-7)	pKi	6.77

###

Target or system UniProt:P30875; recorded quantity Ki.
Sequence (P30875 whole entry): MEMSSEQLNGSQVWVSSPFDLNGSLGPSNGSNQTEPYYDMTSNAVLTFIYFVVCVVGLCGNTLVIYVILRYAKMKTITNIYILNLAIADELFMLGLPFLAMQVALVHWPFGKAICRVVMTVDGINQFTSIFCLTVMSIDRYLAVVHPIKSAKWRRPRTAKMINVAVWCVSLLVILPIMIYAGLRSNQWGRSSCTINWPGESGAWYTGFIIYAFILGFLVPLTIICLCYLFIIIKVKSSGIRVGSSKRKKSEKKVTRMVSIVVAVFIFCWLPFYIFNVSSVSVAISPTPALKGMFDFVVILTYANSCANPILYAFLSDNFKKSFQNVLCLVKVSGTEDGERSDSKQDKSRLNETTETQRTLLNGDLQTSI
*1 amine or outer side, *2 acyl side, *3 side chain or, on linkers, in order; H or OH if unused. Where a SMILES comes first, the peptide text is derived from it. Bridges are numbered along the chain shown (N, C = ends). [ ]: non-standard residue; d: D form. Phe(4-Cl) = N[C@@H](Cc1ccc(Cl)cc1)C(=O)O; d2Nal = N[C@H](Cc1ccc2ccccc2c1)C(=O)O; X1 = O=C(C(N[*:1])S[*:3])[*:2]; Mpa = O=C(O)CCS

COMPOUND	ASSAYED TARGET	RESULT QUALIFIER	Ki [nM]
CC(C)[C@H](NC(=O)[C@H](CCCCN)NC(=O)[C@@H](Cc1c[nH]c2ccccc12)NC(=O)[C@H](Cc1ccc(O)cc1)NC(=O)[C@H](Cc1ccccc1)NC(=O)[C@H](N)Cc1ccccc1)C(=O)N[C@@H](Cc1ccccc1)C(=O)N[C@H](Cc1ccc2ccccc2c1)C(N)=O [CAS_150155-61-6] (H-[dF]FY[dW]KVF[d2Nal]-NH2)	UniProt:P30875	>	10000
CC(C)[C@@H]1NC(=O)[C@H](CCCCN)NC(=O)[C@@H](Cc2c[nH]c3ccccc23)NC(=O)[C@H](Cc2ccc(O)cc2)NC(=O)CCSSC(C(=O)N[C@@H](Cc2ccccc2)C(N)=O)NC1=O (stereo not given in full) [CAS_117580-24-2] ([Mpa]Y[dW]KV[X1]F-NH2; disulfide 1-6)	UniProt:P30875	=	355
C[C@@H](O)[C@@H]1NC(=O)[C@H](Cc2ccccc2)NC(=O)[C@H]([C@@H](C)O)NC(=O)[C@H](CCCCN)NC(=O)[C@@H](Cc2c[nH]c3ccccc23)NC(=O)[C@H](Cc2ccccc2)NC(=O)[C@H](Cc2ccc(Cl)cc2)NC(=O)[C@H](CC(N)=O)NC(=O)[C@H](CCCCN)NC(=O)[C@@H](N)CSSC[C@@H](C(=O)O)NC(=O)[C@H](CO)NC1=O [EC5-21] (H-CKN[Phe(4-Cl)]F[dW]KTFTSC-OH; disulfide 1-12)	UniProt:P30875	=	0.01
C[C@@H](O)[C@@H]1NC(=O)[C@H](Cc2ccc(O)cc2)NC(=O)[C@H]([C@@H](C)O)NC(=O)[C@H](CCCCN)NC(=O)[C@H](Cc2c[nH]c3ccccc23)NC(=O)[C@H](Cc2ccccc2)NC(=O)[C@H](Cc2ccccc2)NC(=O)[C@H](CC(N)=O)NC(=O)[C@H](CCCCN)NC(=O)CCCCC[C@@H](C(=O)O)NC(=O)[C@H](CO)NC1=O	UniProt:P30875	=	1
CC(C)[C@@H]1NC(=O)[C@H](CCCCN)NC(=O)[C@@H](Cc2c[nH]c3ccccc23)NC(=O)[C@H](Cc2ccc(O)cc2)NC(=O)[C@@H](NC(=O)[C@H](N)Cc2ccccc2)CSSC[C@@H](C(=O)N[C@@H](Cc2c[nH]c3ccccc23)C(N)=O)NC1=O [CAS_71306] (H-[dF]CY[dW]KVCW-NH2; disulfide 2-7)	UniProt:P30875	=	0.1
